# Target entity: T1, human TRPM4 expressed in transfected HEK 293 cells (human, UniProt Q8TD43 1-1214)
# T1 construct: whole, on cells; also called transient receptor potential melastatin 4
# T1 sequence (Q8TD43 whole entry): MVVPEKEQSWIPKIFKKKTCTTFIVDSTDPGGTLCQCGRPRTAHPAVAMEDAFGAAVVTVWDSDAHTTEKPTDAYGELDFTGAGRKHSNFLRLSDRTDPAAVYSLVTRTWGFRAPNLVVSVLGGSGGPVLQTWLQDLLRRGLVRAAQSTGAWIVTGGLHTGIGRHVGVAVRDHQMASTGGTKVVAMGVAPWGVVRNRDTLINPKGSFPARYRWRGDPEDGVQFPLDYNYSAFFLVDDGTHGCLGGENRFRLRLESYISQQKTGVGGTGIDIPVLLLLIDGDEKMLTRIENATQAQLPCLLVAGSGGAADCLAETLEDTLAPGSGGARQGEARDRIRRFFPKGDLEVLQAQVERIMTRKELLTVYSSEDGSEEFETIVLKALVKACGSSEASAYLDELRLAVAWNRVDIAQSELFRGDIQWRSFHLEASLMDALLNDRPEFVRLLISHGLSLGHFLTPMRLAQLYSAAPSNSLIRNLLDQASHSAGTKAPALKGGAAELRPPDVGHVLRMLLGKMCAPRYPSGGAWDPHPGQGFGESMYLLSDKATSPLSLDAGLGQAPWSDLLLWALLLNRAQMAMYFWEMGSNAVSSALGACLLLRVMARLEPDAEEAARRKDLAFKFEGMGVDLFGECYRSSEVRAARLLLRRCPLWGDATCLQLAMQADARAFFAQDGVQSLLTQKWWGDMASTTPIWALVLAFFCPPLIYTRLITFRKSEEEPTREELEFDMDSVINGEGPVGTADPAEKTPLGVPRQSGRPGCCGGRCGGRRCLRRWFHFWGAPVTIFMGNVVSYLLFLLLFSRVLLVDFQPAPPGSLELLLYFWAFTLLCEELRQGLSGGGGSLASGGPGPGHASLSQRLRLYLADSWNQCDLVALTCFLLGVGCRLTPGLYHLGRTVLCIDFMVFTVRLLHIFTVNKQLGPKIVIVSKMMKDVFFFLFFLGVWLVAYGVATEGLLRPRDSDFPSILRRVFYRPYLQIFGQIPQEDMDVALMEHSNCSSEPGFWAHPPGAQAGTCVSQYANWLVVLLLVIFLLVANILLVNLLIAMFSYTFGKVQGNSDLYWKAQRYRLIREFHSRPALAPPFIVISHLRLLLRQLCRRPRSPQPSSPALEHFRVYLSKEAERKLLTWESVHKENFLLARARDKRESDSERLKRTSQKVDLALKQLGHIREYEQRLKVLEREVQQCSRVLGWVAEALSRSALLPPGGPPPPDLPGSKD
# Experimental details: immunofluorescent staining of HEK 293 cells transfected with human TRPM4; colocalization with WGA (surface TRPM4)
Measurement name: binding result

• humanized anti-TRPM4 antibody clone A4 (VH1 + VL3) (antibody, V domains shown, Full-length IgG, IgG1 heavy chain; also called VH1 + VL3 (A4)) VH: QVQLQESGPGLVKPSQTLSLTCTVSGYSITSDYAWNWIRQHPGKGLEWIGYLSYSGVTSYNPSLKGRVTISVDTSKNQFSLKLSSVTAADTAVYYCARKGTYYRYEGSYWYFDVWGQGTTVTVSS VL: DIQMTQSPSSLSASVGDRVTITCHANQNIDVWLSWYQQKPGNAPKLLIYKTSNLHTGVPSRFSGSGSGTDFTFTISSLQPEDIATYYCQQGQSYPLTFGGGTKLEIKR = binds
• humanized anti-TRPM4 antibody clone A6 (VH2 + VL1) (antibody, V domains shown, Full-length IgG, IgG1 heavy chain; also called VH2 + VL1 (A6)) VH: QVQLQESGPGLVKPSQTLSLTCTVSGYSITSDYAWNWIRQHPGKGLEWMGYLSYSGVTSYNPSLKGRVTISRDTSKNQFSLKLSSVTAADTAVYYCARKGTYYRYEGSYWYFDVWGQGTTVTVSS VL: DIQMTQSPSSLSASVGDRVTITCHANQNIDVWLSWYQQKPGKAPKLLIYKTSNLHTGVPSRFSGSGSGTDFTFTISSLQPEDIATYYCQQGQSYPLTFGGGTKLEIKR = binds
